# Measurement Target: T1, murine IL-11 (Invigate, e.g., lot #C210819-09) (mouse, UniProt P47873 22-199)
# T1 construct: Bought protein; biotinylated where captured on streptavidin plates; also called mIL-11; mIL11
# T1 sequence: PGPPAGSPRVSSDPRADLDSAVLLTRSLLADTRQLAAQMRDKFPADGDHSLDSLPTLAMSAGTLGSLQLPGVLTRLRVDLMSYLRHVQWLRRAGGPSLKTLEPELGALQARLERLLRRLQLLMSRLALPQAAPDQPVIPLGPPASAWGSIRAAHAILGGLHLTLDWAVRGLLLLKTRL
# Measurement Protocol: SPR, Biacore 8K; antibody captured on anti-human IgG Fc chip, IL-11 analyte 0-50 nM, 1:1 fit
Measured Quantity: pKd
In simple prose, pKd is minus the logarithm base ten of a concentration in moles per litre.

Lab note: TPP-31287 (antibody, human IgG4, V domains shown, consecutive numbering; also called VH-L5V) VH: EVQLVESGGGLVQPGGSLRLSCAASGFTFSHYDMNWLRQAPGKGLEWVGVISYDGSNKFYADFVKGRFTISRDNSKNTLYLQMNSLRAEDTAVYYCARTPGSHFDYWGQGTLVTVSS VL: QSVLTQPPSASGTPGQRVTISCSGSSSNIGNNAVNWYQQLPGTAPKLLIYYDDLLPSGVPDRFSGSKSGTSASLAISGLRSEDEADYYCSAWDDSLNGVVFGGGTKLTVL gave pKd of 7.89
